Test system: Acinetobacter baumannii
Assay: Antimicrobial activity against Acinetobacter baumannii 1.6769 assessed as bacterial killing measured after 16 hrs incubation
Assay type: functional
Kindly state MBC for each of the entries shown.
One number for each entry, in µM.

Worked cases, answers included:
{"columns": ["substance", "measured_quantity", "recorded_measurement"],
 "data": [
  ["H-AKLWLKAAKLWLKAAKLWLKA-NH2", "MBC", 1],
  ["H-GKLWLKGMKLWLKGGKLWLKG-NH2", "MBC", 1],
  ["H-MKLWLKGGKLWLKGGKLWLKG-NH2", "MBC", 16]
]}

Batch of 8 substances: report MBC for each.
1. H-GKLWLKGLKLWLKGGKLWLKG-NH2
2. H-GKLWLKGFKLWLKGGKLWLKG-NH2
3. H-IKLWLKGGKLWLKGGKLWLKG-NH2
4. H-GKLWLKGIKLWLKGGKLWLKG-NH2
5. H-VKLWLKGGKLWLKGGKLWLKG-NH2
6. H-GKLWLKGWKLWLKGGKLWLKG-NH2
7. H-GKLWLKGGKLWLKGAKLWLKG-NH2
8. H-FKLWLKGGKLWLKGGKLWLKG-NH2

Reply text:
[2, 2, 8, 2, 16, 2, 2, 8]

Required: MBC, one value per substance below.
1. H-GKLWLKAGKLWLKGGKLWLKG-NH2
2. H-LKLWLKGGKLWLKGGKLWLKG-NH2

Reply text:
1: 2; 2: 16
